Experiment: yeast display, Sf9 membrane polyspecificity reagent, FACS + sequencing; frameworks hold sequencing errors
measure-name: polyreactivity (PSR sort gate)

{"residue-sequence": "QVQLVESGGGLVQAGGRLRLSCAPSGLIFYGYAMGWYRQAPGKERELVAAISGSGGRTYYADSVKGRYTISRDNAKNTVYLEMNSLKPEDSAVYYCAGKVPRFGAPGVNYWGQGTQVTVSS", "measure-name": "polyreactivity (PSR sort gate)", "value-measured": "high polyreactivity"}
{"residue-sequence": "QVQLQESGGGLVQAGGSLGCAASCNISTRSEMGWYRQAPGKEREFVATINSGGITNYADSLKGRFTISRDNAKNTVYLRKNSLKAEVTAVYYRAVYGYFSYPYDYWGQGTQVSVSS", "measure-name": "polyreactivity (PSR sort gate)", "value-measured": "low polyreactivity"}
{"residue-sequence": "QVQLVESGGGLVQAGGSLRLSCAASGIIFVLYTMGWYIQAPGKERELVATINWGGGNTYYADSVKGRFTISRDNAKNTVYFQMNSLKPEDTAVYYCAAAYTWYGYSQAYYYWGQGTQVTVSS", "measure-name": "polyreactivity (PSR sort gate)", "value-measured": "low polyreactivity"}
{"residue-sequence": "QVQLVESGAGLVQAGGSLRLSCAASGFIFLAYTMGWSRQGPAKERELVAAISTSGGSTYYADSVKGRFTISRDKAKNTVYLEMNSLKPEDTGVYYCAADYSYWRGYDSWGQGTQVTVSS", "measure-name": "polyreactivity (PSR sort gate)", "value-measured": "high polyreactivity"}
{"residue-sequence": "QVQLVESGGGLVQAGGSLRLSCAASGFTFLYNAMGWYRQAPVKERELVASINSGGSTNYADSVKGRFTISRDNAKNTVYLQMNSLKPEDTAVYYCNAKRHVRKGDYWGLGTQVTVSS", "measure-name": "polyreactivity (PSR sort gate)", "value-measured": "low polyreactivity"}
{"residue-sequence": "QVQLVESGGGLVQAGGRLRLSCAASGSTNYRYAMRWYRQAPGKERELVATISRTGARTNYADSVKGRFTISRDNAKNTVYLQMNSLKPEDTAVYYCAASAPYIYYWGQGTQVTVSS", "measure-name": "polyreactivity (PSR sort gate)", "value-measured": "high polyreactivity"}
{"residue-sequence": "QVQLVESGGGLDQAGGSLRLISAASGLTLRRYAMGWYRQAPGKERELVASINTGTSTKYADSVKGRFTISRDNAKNTDYLQLNSLKPEDTAFYYCAARPAAQGYGYWGQGTQVTVSS", "measure-name": "polyreactivity (PSR sort gate)", "value-measured": "high polyreactivity"}
{"residue-sequence": "QVQLVESGGGLVQAGGSLRLSCAASGITFYRNAMGWYRQAPGKEREFVAAITSSGGSTYYADSVKGRFTISRDNAKNTVYLQMNSLKPEDTAVYYCRPGRWRVSHKYDYWGQGTQVTVSS", "measure-name": "polyreactivity (PSR sort gate)", "value-measured": "high polyreactivity"}
{"residue-sequence": "QVQLVESGGGLVQAGGSLRLSCAASGSTFAHNAMGWYRQAPGKERELVAAISRRGGSTYYADSVKGRFTISRDNAQNTVYLQMNSLKPEDTAVYYCNAVAHNVRVYRFYPGWAGLDYWGQGTQVTVSS", "measure-name": "polyreactivity (PSR sort gate)", "value-measured": "high polyreactivity"}
{"residue-sequence": "QVQLVESAGGLVQAGGSLRLSCAASGRIFGINSLGWYRQAPGKERELDAAISSGGSTYYADSVKGRFTISRDNAKYTVYILMNSEKPVDSAVYYCASDYDSSVCHDRGFWRDYWGQGNQVTVSS", "measure-name": "polyreactivity (PSR sort gate)", "value-measured": "low polyreactivity"}
{"residue-sequence": "QVQLVESGGGLVQAGGSLRLSCAASGSIFDVYTMGWDREAPGKERELVAAINTGGGSTYYADSVKGRFTISRDNAKNTVYLQMNSLKPEDTAVYYCAASVYHYGPLYYWGQGTQVTVSS", "measure-name": "polyreactivity (PSR sort gate)", "value-measured": "low polyreactivity"}
